Test system: B. cereus
Test: Broth microdilution MIC/MBC
Assay type: cell-based
Details: 24 h at 37° C.
Entries and their MIC values follow.
assay_metric: MIC (µM)

{"compound_smiles": "CCCCCCCCCC[n+]1cccc2ccccc21.[Br-]", "readout_value": 223}
{"compound_smiles": "CCCCCCCCCCCCCCCCCC[n+]1cccc2ccccc21.[Br-]", "readout_value": 419.52}
{"compound_smiles": "CCCCCCCCCCCCCC[n+]1ccn(C)c1.[Br][Ag-][Br]", "readout_value": 72.2}
{"compound_smiles": "CCCCCCCCCCCCCCCCn1cc[n+](C)c1.[Br][Ag-][Br]", "readout_value": 68.89}
{"compound_smiles": "CCCCCCCC[n+]1cccc2ccccc21.[Br-]", "readout_value": 484.78}
{"compound_smiles": "CCCCCCCCCCCCn1cc[n+](C)c1.CCCCCCCCCCCCn1cc[n+](C)c1.[Cl][Cu-2]([Cl])([Cl])[Cl]", "readout_value": 407}
{"compound_smiles": "CCCCCCCCCCCCCC[n+]1cccc2ccccc21.[Br-]", "readout_value": 23.95}

* * *

Entries and their MIC values follow.
Test system: K. aerogenes NCTC 7427
Test: Broth microdilution MIC/MBC
Assay type: cell-based
Conditions: K. aerogenes NCTC 7427, 24 h at 37° C.
assay_metric: MIC (µM)

{"compound_smiles": "CCCCCCCCCC[n+]1cccc2ccccc21.[Br-]", "readout_value": 55.74}
{"compound_smiles": "CCCCCCCC[n+]1ccn(C)c1.CCCCCCCC[n+]1ccn(C)c1.[Cl][Cu-2]([Cl])([Cl])[Cl]", "readout_value": 941.6}
{"compound_smiles": "CCCCCCCC[n+]1ccn(C)c1.[Br][Ag-][Br]", "readout_value": 168.5}
{"compound_smiles": "CCCCCCCCCCCCCC[n+]1ccn(C)c1.[Br][Ag-][Br]", "readout_value": 18.05}
{"compound_smiles": "CCCCCCCCCCCCCCCCn1cc[n+](C)c1.CCCCCCCCCCCCCCCCn1cc[n+](C)c1.[Cl][Cu-2]([Cl])([Cl])[Cl]", "readout_value": 44.81}
{"compound_smiles": "CCCCCCCCCCCCCCn1cc[n+](C)c1.CCCCCCCCCCCCCCn1cc[n+](C)c1.[Cl][Cu-2]([Cl])([Cl])[Cl]", "readout_value": 40.02}

* * *

System: P. mirabilis NCTC 12442
Assay: Broth microdilution MIC/MBC
Type: cell-based
Conditions: Proteus mirabilis, NCTC12442; P. mirabilis NCTC 12442, 24 h at 37° C.
assay_metric: MIC (µM)

{"compound": "CCCCCCCCCCCCn1cc[n+](C)c1.[Cl-] [C12MIMCl, 1-dodecyl-3-methylimidazolium chloride]", "readout_value": 580}
{"compound": "CCCCCCCCCCn1cc[n+](C)c1.[Cl-] [C10MIMCl, 1-decyl-3-methylimidazolium chloride]", "readout_value": 1290}
{"compound": "CCCCCCCCCCCCCC[n+]1ccn(C)c1C [IL1, reference compound]", "readout_value": 372}
{"compound": "CCCCCCCCCCCCCC[n+]1cccc2cc(C)ccc21.[Br-] [IL3, N-tetradecyl-6-methylquinolinium bromide]", "readout_value": 92.9}
{"compound": "CCCCCCCCCCCCCCn1cc[n+](C)c1.[Cl-]", "readout_value": 264}
{"compound": "CCCCCCCCCCCCCC[N+](C)(C)CCO [IL2, reference compound]", "readout_value": 427}
{"compound": "CCCCCCCCCCCCCC[n+]1ccc2ccccc2c1.[Br-] [IL4, N-tetradecylisoquinolinium bromide]", "readout_value": 193}

* * *

Tested on: K. aerogenes NCTC 7427
Test: Broth microdilution MIC/MBC
Type: cell-based
Details: Klebsiella aerogenes, NCTC7427; K. aerogenes NCTC 7427, 24 h at 37° C.

{"molecule": "CCCCCCCCCCn1cc[n+](C)c1.[Cl-] [C10MIMCl, 1-decyl-3-methylimidazolium chloride]", "MIC": "643 µM"}
{"molecule": "CCCCCCCCCCCCCC[n+]1ccc2ccccc2c1.[Br-] [IL4, N-tetradecylisoquinolinium bromide]", "MIC": "7.9 µM"}
{"molecule": "CCCCCCCCCCCCCCn1cc[n+](C)c1.[Cl-] [C14MIMCl]", "MIC": "33 µM"}
{"molecule": "CCCCCCCCCCCCn1cc[n+](C)c1.[Cl-] [C12MIMCl, 1-dodecyl-3-methylimidazolium chloride]", "MIC": "73 µM"}

* * *

System: B. cereus
Experiment: Broth microdilution MIC/MBC
Format: cell-based
Conditions: Bacillus cereus, 24 h at 37° C.
Entries and their MIC values follow.

{"compound": "CCCCCCCCCCCCCC[N+](C)(C)CCO [IL2, reference compound]", "result_unit": "µM", "MIC": 13.3}
{"compound": "CCCCCCCCCCCCCC[n+]1ccc2ccccc2c1.[Br-] [IL4, N-tetradecylisoquinolinium bromide]", "result_unit": "µM", "MIC": 3}
{"compound": "CCCCCCCCCCCCCC[n+]1cccc2cc(C)ccc21.[Br-] [IL3, N-tetradecyl-6-methylquinolinium bromide]", "result_unit": "µM", "MIC": 2.9}
{"compound": "CCCCCCCCCCCCCC[n+]1ccn(C)c1C [IL1, reference compound]", "result_unit": "µM", "MIC": 372}

* * *

Test system: S. aureus PIII
Assay: Biofilm assay (Calgary Biofilm Device), MBEC
Format: cell-based
Conditions: S. aureus PIII 24 h biofilm, 24 h challenge
Quick rule for you: MBEC at 1000 µM or higher means Y, lower means N.

{"compound_smiles": "CCCCCCCC[n+]1cccc2ccccc21.[Br-]", "assigned_label": "Y"}
{"compound_smiles": "CCCCCCCCCCCCCCCCCC[n+]1cccc2ccccc21.[Br-]", "assigned_label": "Y"}
{"compound_smiles": "CCCCCCCCCC[n+]1cccc2ccccc21.[Br-]", "assigned_label": "Y"}
{"compound_smiles": "CCCCCCCCCCCCCC[n+]1cccc2ccccc21.[Br-]", "assigned_label": "N"}
{"compound_smiles": "CCCCCCCCCCCC[n+]1cccc2ccccc21.[Br-]", "assigned_label": "N"}
{"compound_smiles": "CCCCCCCCCCCCCCCC[n+]1cccc2ccccc21.[Br-]", "assigned_label": "Y"}

* * *

Tested on: B. cereus
Test: Broth microdilution MIC/MBC
Assay type: cell-based
Settings: 24 h at 37° C.
Entries and their MIC values follow.

{"compound": "CCCCCCCCCCCCCCn1cc[n+](C)c1.CCCCCCCCCCCCCCn1cc[n+](C)c1.[Cl][Cu-2]([Cl])([Cl])[Cl] [(1-alkyl-3-methylimidazolium)2CuCl4 14]", "MIC [µM]": 80.06}
{"compound": "CCCCCCCC[n+]1ccn(C)c1.CCCCCCCC[n+]1ccn(C)c1.[Cl][Cu-2]([Cl])([Cl])[Cl] [(1-alkyl-3-methylimidazolium)2CuCl4 8]", "MIC [µM]": 1883.21}
{"compound": "CCCCCCCCCCn1cc[n+](C)c1.[Br][Ag-][Br] [1-alkyl-3-methylimidazolium-AgBr2 10]", "MIC [µM]": 79.78}
{"compound": "CCCCCCCCCCCCCCCCn1cc[n+](C)c1.CCCCCCCCCCCCCCCCn1cc[n+](C)c1.[Cl][Cu-2]([Cl])([Cl])[Cl] [(1-alkyl-3-methylimidazolium)2CuCl4 16]", "MIC [µM]": 89.63}
{"compound": "CCCCCCCC[n+]1ccn(C)c1.[Br][Ag-][Br] [1-alkyl-3-methylimidazolium-AgBr2 8]", "MIC [µM]": 168.5}
{"compound": "CCCCCCCCCC[n+]1ccn(C)c1.CCCCCCCCCC[n+]1ccn(C)c1.[Cl][Cu-2]([Cl])([Cl])[Cl] [(1-alkyl-3-methylimidazolium)2CuCl4 10]", "MIC [µM]": 1746.4}

* * *

Entries and their MIC values follow.
Tested on: B. cereus
Test: Broth microdilution MIC/MBC
Type: cell-based
Conditions: 24 h at 37° C.

{"compound_smiles": "CCCCCCCCCCCCCCCC[n+]1cccc2ccccc21.[Br-]", "MIC": "140.48 µM"}
{"compound_smiles": "CCCCCCCCCCCCCCCCCC[n+]1ccn(C)c1.[Br][Ag-][Br]", "MIC": "65.87 µM"}
{"compound_smiles": "CCCCCCCCCCCCCCCCCCn1cc[n+](C)c1.CCCCCCCCCCCCCCCCCCn1cc[n+](C)c1.[Cl][Cu-2]([Cl])([Cl])[Cl]", "MIC": "169.15 µM"}
{"compound_smiles": "CCCCCCCCCCCC[n+]1ccn(C)c1.[Br][Ag-][Br]", "MIC": "68.81 µM"}
{"compound_smiles": "CCCCCCCCCCCC[n+]1cccc2ccccc21.[Br-]", "MIC": "51.63 µM"}

* * *

Test system: S. epidermidis ATCC 12228
Experiment: Broth microdilution MIC/MBC
Format: cell-based
Conditions: S. epidermidis ATCC 12228, 24 h at 37° C.

{"compound_smiles": "CCCCCCCCn1cc[n+](C)c1.[Cl-]", "test_system": "S. epidermidis ATCC 12228", "MIC": "361 µM"}
{"compound_smiles": "CCCCCCCCCCCCCC[n+]1cccc2ccccc21.[Br-]", "test_system": "S. epidermidis ATCC 12228", "MIC": "3 µM"}
{"compound_smiles": "CCCCCCCCCCCC[n+]1cccc2ccccc21.[Br-]", "test_system": "S. epidermidis ATCC 12228", "MIC": "12.9 µM"}
{"compound_smiles": "CCCCCCCCCC[n+]1cccc2ccccc21.[Br-]", "test_system": "S. epidermidis ATCC 12228", "MIC": "55.74 µM"}
{"compound_smiles": "CCCCCCCCCC[n+]1ccn(C)c1.CCCCCCCCCC[n+]1ccn(C)c1.[Cl][Cu-2]([Cl])([Cl])[Cl]", "test_system": "S. epidermidis ATCC 12228", "MIC": "101.74 µM"}
{"compound_smiles": "CCCCCCCC[n+]1cccc2ccccc21.[Br-]", "test_system": "S. epidermidis ATCC 12228", "MIC": "121.2 µM"}
{"compound_smiles": "CCCCCCCCCCn1cc[n+](C)c1.[Br][Ag-][Br]", "test_system": "S. epidermidis ATCC 12228", "MIC": "32.68 µM"}
{"compound_smiles": "CCCCCCCCCCCCCCCCn1cc[n+](C)c1.CCCCCCCCCCCCCCCCn1cc[n+](C)c1.[Cl][Cu-2]([Cl])([Cl])[Cl]", "test_system": "S. epidermidis ATCC 12228", "MIC": "44.81 µM"}
{"compound_smiles": "CCCCCCCCCCCCCCCCCC[n+]1ccn(C)c1.[Br][Ag-][Br]", "test_system": "S. epidermidis ATCC 12228", "MIC": "13.91 µM"}
{"compound_smiles": "CCCCCCn1cc[n+](C)c1.[Cl-]", "test_system": "S. epidermidis ATCC 12228", "MIC": ">1644 µM"}
{"compound_smiles": "CCCCCCCC[n+]1ccn(C)c1.CCCCCCCC[n+]1ccn(C)c1.[Cl][Cu-2]([Cl])([Cl])[Cl]", "test_system": "S. epidermidis ATCC 12228", "MIC": "470 µM"}
{"compound_smiles": "CCCCCCCCCCCCCCn1cc[n+](C)c1.CCCCCCCCCCCCCCn1cc[n+](C)c1.[Cl][Cu-2]([Cl])([Cl])[Cl]", "test_system": "S. epidermidis ATCC 12228", "MIC": "20.01 µM"}
{"compound_smiles": "CCCCCCCCCCCCCCCCCCn1cc[n+](C)c1.CCCCCCCCCCCCCCCCCCn1cc[n+](C)c1.[Cl][Cu-2]([Cl])([Cl])[Cl]", "test_system": "S. epidermidis ATCC 12228", "MIC": "131.98 µM"}
{"compound_smiles": "CCCCCCCC[n+]1ccn(C)c1.[Br][Ag-][Br]", "test_system": "S. epidermidis ATCC 12228", "MIC": "68.35 µM"}
{"compound_smiles": "CCCCCCCCCCCC[n+]1ccn(C)c1.[Br][Ag-][Br]", "test_system": "S. epidermidis ATCC 12228", "MIC": "31.32 µM"}
{"compound_smiles": "CCCCCCCCCCCCCC[n+]1ccn(C)c1.[Br][Ag-][Br]", "test_system": "S. epidermidis ATCC 12228", "MIC": "15.03 µM"}
{"compound_smiles": "CCCCCCCCCCCCCCCCn1cc[n+](C)c1.[Br][Ag-][Br]", "test_system": "S. epidermidis ATCC 12228", "MIC": "3.61 µM"}
{"compound_smiles": "CCCCCCCCCCCCn1cc[n+](C)c1.CCCCCCCCCCCCn1cc[n+](C)c1.[Cl][Cu-2]([Cl])([Cl])[Cl]", "test_system": "S. epidermidis ATCC 12228", "MIC": "50.88 µM"}
{"compound_smiles": "CCCCCCCCCCCCCCCC[n+]1cccc2ccccc21.[Br-]", "test_system": "S. epidermidis ATCC 12228", "MIC": "35.12 µM"}
